Record form. Attribute: pKd. Fill in for each entry.
measurement_target: T1, TJP3_3, O95049
T1 sequence (O95049 375-456, limits assumed, looked up): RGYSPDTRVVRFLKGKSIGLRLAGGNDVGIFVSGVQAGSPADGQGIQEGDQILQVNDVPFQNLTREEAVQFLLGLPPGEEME
experiment_summary: holdup assay
Parameters: key: below the threshold = too weak to quantify, mostly under pKd 3.1 to 4
condition_parameters: plain residues with an end cap or a label only (N-terminal biotin on a linker: ttds)
Form field (numeric): enter value without unit.

## Input Note down pKd recorded for SSRTRRETQL [HPV16-E6, P03126]
## Output 3.68

## Input Answer with reported pKd of RSLEEEESQL [GRASP, Q7Z6J2]
## Output 3.65
